Test: chemical genetic growth profiling, strain panel (AID 1159580);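 also: tested at 20 µM; growth read once vehicle control cultures reached saturation at 30 °C; lower values mean less growth of the strain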
Conditions: S. cerevisiae deletion strains, growth OD, locus YPL055C, strain LGE1
The campaign covered roughly 5,500 compounds. About 2,000 (36%) were called active. Inconclusive results (about 18%) are left out. Rule as the data show it: active = normalized growth mostly below about 0.91 (no sharp cut-off); inconclusive = no clear call, values can overlap the other calls; inactive = mostly above about 0.92. The list shows a part of the results.
Respond only with the outcome that fits, drawn from active, inactive

Data request: Recorded call for CC1(C)C(=O)C=CC2(C)C3CCC4(C)C(c5ccoc5)CC5OC54C3C(O)CC12 (stereo not given) ?
Data returned: inactive

Data request: For this compound, state the assay outcome: `Clc1cc(Cl)cc(-n2cccc2)c1`
Data returned: inactive

Data request: Assay result, entry `CCOC(=O)N/N=C\c1cccs1` — outcome?
Data returned: inactive

Data request: Could you kindly confirm the outcome this assay logged for `CC(=O)Oc1ccc(Cl)c2cccnc12` ?
Data returned: active

Data request: How was C=CC(C1=CC(=O)C(OC)=CC1=O)c1ccc(OC)cc1 (stereo not given) classified in this test?
Data returned: inactive

Data request: Assay result, entry `CCSc1sc(C(=O)OC)c(-c2ccc(Cl)cc2)c1C#N` — outcome?
Data returned: inactive

Data request: Per the records of this test, what outcome belongs to `NCCNC(=O)c1ccc(Cl)cc1` ?
Data returned: inactive

Data request: Each compound tested received a call. Report the one for CC(C)NCC(O)c1ccc2ccccc2c1 (stereo not given) .
Data returned: inactive

Data request: What is the recorded call for this compound in the test? O=C1OC2COC(=O)C2C=C1NC(=O)c1ccc(Cl)cc1 (stereo not given)
Data returned: inactive

Data request: Any idea what this test logged for CN1C(CC(=O)c2ccccc2)CCCC1CC(O)c1ccccc1 (stereo not given) ?
Data returned: inactive

Data request: Query: recorded result category for CC(O)C(O)[C@H]1CNc2nc(N)[nH]c(=O)c2N1 (stereo not given in full) in this test
Data returned: inactive

Data request: Fill in: this test's call for CC(C)(C)c1ccc(C(O)CCCN2CCC(C(O)(c3ccccc3)c3ccccc3)CC2)cc1 (stereo not given) is ___
Data returned: inactive

Data request: Fill in: this test's call for `O=C(Nc1ccccc1F)C(Cl)Cl` is ___
Data returned: inactive

Data request: I would be grateful if you could indicate the recorded call for `O=C1C=CC2=C3c4cc(O)c(O)cc4C[C@@]3(O)COC2=C1` .
Data returned: inactive

Data request: Query: recorded result category for `Cc1cc(C)c(I)c(C)c1` in this test
Data returned: inactive

Data request: Any idea what this test logged for `CN1CCC(c2c[nH]c3ccc(O)cc23)CC1` ?
Data returned: inactive

Data request: Hello, I am checking results. What call was entered for `NC(=S)N/N=C\c1cccs1` ?
Data returned: inactive

Data request: Called result for `CCCc1cc(Br)c(-n2cccc2)c(Br)c1`
Data returned: inactive

Data request: Recorded test call requested for `c1ccc2c(c1)cc1ccc3cccc4ccc2c1c34`
Data returned: inactive

Data request: Recorded call for `Nc1ccccc1SCC(=O)Nc1c(F)cccc1F` ?
Data returned: inactive
